Listed below: TGI values for each entry.
# System: OVCAR-4 ovarian
# PROCEDURE SUMMARY: NCI tumour cell line growth inhibition, 48 h

Worked set:
Cc1ccc(S(=O)(=O)CNC(=S)CCCC(=S)NCS(=O)(=O)c2ccc(C)cc2)cc1 ... > 100 µM
CCOC(=O)c1c(C)n(Cc2ccccc2)c2c1cc(O)c1[nH]c3c(c12)CCCC3 ... 4.08 µM
CC(CN)[C@@H]1CC[C@]2(CO)CC[C@]3(C)[C@H](CC[C@@H]4[C@@]5(C)CCC(NCCO)C(C)(C)[C@@H]5CC[C@]43C)[C@@H]12 (stereo partly specified) ... 9.09 µM

Query: Fill in the blank: the reported TGI of CC1(C)OCC2OC3([C@H](O)CCO)OC(C)(C)OC3C2O1 (stereo partly specified) is ____.
Response: > 100 µM

Query: Fill in the blank: the reported TGI of CC(C)(C)OC(=O)NCCCCCCCCn1c2c(c3ccccc3c1=O)C(=O)c1ccccc1-2 is ____.
Response: > 50 µM

Query: Fill in the blank: the reported TGI of CC(C)(C)c1cc(-c2ccc(-c3cc(C(C)(C)C)c(O)c(C(C)(C)C)c3)cc2)cc(C(C)(C)C)c1O is ____.
Response: > 100 µM

Query: Fill in the blank: the reported TGI of Cc1cc(O)c2c(c1)C(=O)c1cc(O)cc(O)c1C2=O is ____.
Response: 98.8 µM

Query: Fill in the blank: the reported TGI of O=c1c2cc(Br)ccc2oc2nc3n(c(=O)c12)CCCS3 is ____.
Response: > 100 µM

Query: Fill in the blank: the reported TGI of NC(=O)c1csc(C2C=CC(CO)O2)n1 (stereo unspecified) is ____.
Response: > 100 µM

Query: Fill in the blank: the reported TGI of C=C(CN1CCN(c2cccc(C(F)(F)F)c2)CC1)c1ccc(C(=O)Nc2ccccc2N)cc1 is ____.
Response: 41 µM

Query: Fill in the blank: the reported TGI of O=C(CSc1nnc(Cc2ccccc2)o1)Nc1ccc(Cl)cc1 is ____.
Response: > 100 µM

Query: Fill in the blank: the reported TGI of Oc1ccc2c(c1)OCC(O)(c1ccccc1O)C2 (stereo unspecified) is ____.
Response: > 100 µM

Query: Fill in the blank: the reported TGI of OCCCSc1ccccc1SCCCO is ____.
Response: > 100 µM

Query: Fill in the blank: the reported TGI of c1ccc2nc3[nH]c4ccccc4c3cc2c1 is ____.
Response: 2.79 µM

Query: Fill in the blank: the reported TGI of O=c1nc2n(cc1/C=C\Br)C1CC(O)C(CO2)O1 (stereo unspecified) is ____.
Response: > 100 µM

Query: Fill in the blank: the reported TGI of CC1=C(C(=O)Nc2ccccc2C)C(c2ccc([N+](=O)[O-])cc2)C(C(=O)Nc2ccccc2C)=C(C)N1 is ____.
Response: > 100 µM

Query: Fill in the blank: the reported TGI of C[n+]1c2ccccc2c(CNC(CCC(N)=O)C(=O)O)c2ccccc21 (stereo unspecified) is ____.
Response: 9.24 µM

Query: Fill in the blank: the reported TGI of COC(=O)c1c2c(c(C)[n+]([O-])c1C)C(=O)C=C(NCc1cccc(OC)c1)C2=O is ____.
Response: 0.993 µM

Query: Fill in the blank: the reported TGI of C=C1C(=O)OC2/C=C(\C)C(O)CC(O)C(C)(O)CC(OC(=O)/C(C)=C/C)C12 (stereo unspecified) is ____.
Response: > 100 µM

Query: Fill in the blank: the reported TGI of Cc1cc2c(cc1O)CC[C@@H]1[C@@H]2CC[C@]2(C)[C@@H](O)CC[C@@H]12 is ____.
Response: 29.2 µM

Query: Fill in the blank: the reported TGI of C=C(CN(CC(=C)C(=O)c1ccccc1)C(C)(C)C)C(=O)c1ccccc1 is ____.
Response: 29.3 µM
